Molecular target: human KDR (VEGF-receptor-2) (Homo sapiens, UniProt P35968)
Construct: beginning at Met-806; (5′-ATG GAT CCA GAT GM CTC CCA TTG) and ending at Val-1356; made in house
Sequence (P35968 806-1356): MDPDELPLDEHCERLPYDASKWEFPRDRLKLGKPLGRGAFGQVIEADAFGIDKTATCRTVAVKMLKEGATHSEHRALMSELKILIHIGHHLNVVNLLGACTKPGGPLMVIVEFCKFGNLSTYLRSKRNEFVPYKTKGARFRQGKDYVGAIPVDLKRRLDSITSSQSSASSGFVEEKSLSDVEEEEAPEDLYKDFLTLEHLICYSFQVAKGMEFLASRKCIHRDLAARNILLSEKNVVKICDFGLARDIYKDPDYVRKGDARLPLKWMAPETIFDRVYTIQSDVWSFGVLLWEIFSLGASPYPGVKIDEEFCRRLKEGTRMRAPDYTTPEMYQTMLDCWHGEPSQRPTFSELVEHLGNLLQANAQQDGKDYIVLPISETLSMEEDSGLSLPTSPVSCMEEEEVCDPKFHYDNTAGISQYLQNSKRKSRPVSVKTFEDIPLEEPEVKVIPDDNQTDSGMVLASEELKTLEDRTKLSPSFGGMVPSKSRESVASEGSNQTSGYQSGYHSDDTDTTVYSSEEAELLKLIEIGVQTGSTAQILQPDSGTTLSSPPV
Experiment: KDR kinase enzyme assay (DELFIA, KDR-IC-Flag, poly(Glu4-Tyr) peptide)
Format: biochemical
Conditions: Concentration 100 nM; ATP conc. 10 μM; read-out: % Inhibition
I'd appreciate it if you could supply inhibition at 0.1 µM values for the items below.
For clarity, give the value followed by its unit.

In the examples that follow, each entry is paired with its recorded inhibition at 0.1 µM.
compound	inhibition at 0.1 µM
COCCOc1cc2ncc(C#N)c(NC3=CC(=O)C(Oc4ccc(-n5ccnc5)cc4)=CC3=O)c2cc1OC [Example 72]	73%
COCCOc1cc2ncnc(NC3=CC(=O)C(Oc4ccc5c(c4)Cc4ccccc4-5)=CC3=O)c2cc1OC [Example 53]	90%
COc1cc2ncnc(NC3=CC(=O)C(Oc4ccccc4)=CC3=O)c2cc1OC [Example 95]	85%

Give inhibition at 0.1 µM for all compounds that follow.
1. COCCOc1cc2ncnc(NC3=CC(=O)C(Oc4ccc(C)cc4-c4ccno4)=CC3=O)c2cc1OC [Example 47]
2. CNC1=CC(=O)C(Nc2ncnc3cc(OC)c(OC)cc23)=CC1=O [Example 89]
3. COc1cc2ncnc(NC3=CC(=O)C(N4CCCCC4)=CC3=O)c2cc1OC [Example 87]
4. COCCOc1cc2ncnc(NC3=CC(=O)C(Oc4ccc(C(F)(F)F)cc4)=CC3=O)c2cc1OC [Example 36]

A.
86%
11%
19%
79%

* * *

What inhibition at 1 µM was measured for each of the following?
Target: human KDR (VEGF-receptor-2) (Homo sapiens, UniProt P35968)
Construct: beginning at Met-806; (5′-ATG GAT CCA GAT GM CTC CCA TTG) and ending at Val-1356; made in house
Experiment: KDR kinase enzyme assay (DELFIA, KDR-IC-Flag, poly(Glu4-Tyr) peptide)
Format: biochemical
Settings: Concentration 1000 nM; ATP conc. 10 μM; read-out: % Inhibition
Put your answer as a value accompanied by its unit after it.

The following compounds have reported results that may help.
compound	measurement.type	val
COCCOc1cc2ncnc(NC3=CC(=O)C(Sc4nccs4)=C(OC)C3=O)c2cc1OC	inhibition at 1 µM	90%
COCCOc1cc2ncnc(NC3=CC(=O)C(Oc4ccc(CCC(=O)OC)cc4)=CC3=O)c2cc1OC	inhibition at 1 µM	94%

Quick request: inhibition at 1 µM for each listed item, please.
1. COc1cc2ncnc(NC3=CC(=O)C(c4ccccc4)=CC3=O)c2cc1OC
2. COCCOc1cc2ncnc(NC3=CC(=O)C(Oc4ccc(C(=O)OC)cc4)=CC3=O)c2cc1OC
3. COc1cc2ncnc(NC3=CC(=O)C4(C)OC4C3=O)c2cc1OC (stereo not drawn)

A.
1: 92%; 2: 94%; 3: 49%

I have 6 compounds here; please give me inhibition at 1 µM for each one.
1. COCCOc1cc2ncnc(NC3=CC(=O)C(OCc4ccccc4)=CC3=O)c2cc1OC
2. CCC1=CC(=O)C(Nc2ncnc3cc(OC)c(OC)cc23)=CC1=O
3. COc1cc2ncnc(NC3=CC(=O)C(Cl)=CC3=O)c2cc1OC
4. COCCOc1cc2ncnc(NC3=CC(=O)C(N(C)c4ccc(N(C)C)cc4)=CC3=O)c2cc1OC
5. COCCOc1cc2ncnc(NC3=CC(=O)C(Oc4ccc(Br)cc4)=CC3=O)c2cc1OC
6. COCCOc1cc2ncnc(NC3=CC(=O)C(Oc4ccc(C(=O)c5ccccc5)cc4)=CC3=O)c2cc1OC

A.
91%
82%
96%
92%
94%
94%

Q. Given COCCOc1cc2ncnc(NC3=CC(=O)C(Oc4cccc(C(C)=O)c4)=CC3=O)c2cc1OC , state its recorded inhibition at 1 µM.
A. 95%
